Parameter: IC50. Scope: all listed entries.
- System: Reuber rat hepatoma (Rh) cells
- protocol_details: Mammalian cell toxicity, Alamar Blue assay
- Assay type: cell-based
- assay_conditions: Rattus norvegicus, 120 h; confluent Rh cells; Alamar blue; 5 days; range tested 30–0.23 μM; mean (SD) of two tests; read-out: IC50 Rh confluent

compound: CCCCCCCc1c(C)[nH]c2cccc(F)c2c1=O [ELQ-136]
IC50: > 30 µM

Now let's try a different one.
Query: Retrieve IC50 measured for CCCCCCCCCCCc1c(C)[nH]c2cc(F)cc(F)c2c1=O [ELQ-437] and print it.
Response: > 30 µM

###

- System: E. multilocularis GL cells (isolate Sval)
- protocol_details: GL cell viability assay (CellTiter-Glo), isolate Sval
- Type: cell-based, Echinococcus multilocularis
- assay_conditions: isolate Sval; 0.1 μM; 5 days; nitrogen atmosphere; mean (SD); active if <30%
Parameter: GL cells, viability via ATP measurements, relative to DMSO control. Scope: all listed entries.

Example entries begin here.
smiles_repr: Cc1[nH]c2ccccc2c(=O)c1-c1ccc(Oc2ccc(OC(F)(F)F)cc2)cc1
experimental_value: 25.4 (7.2) %
--
smiles_repr: Cc1[nH]c2cc(F)cc(F)c2c(=O)c1-c1ccc(Oc2ccc(OC(F)(F)F)cc2)cc1
experimental_value: 14.6 (8.6) %
--
smiles_repr: COc1cc2[nH]c(C)c(-c3ccc(Oc4ccc(OC(F)(F)F)cc4)cc3)c(=O)c2cc1F
experimental_value: 58 (5.3) %

Now let's try a different one.
Query: Retrieve GL cells, viability via ATP measurements, relative to DMSO control measured for "COc1cc2[nH]c(C)c(-c3ccc(Oc4ccc(OC(F)(F)F)cc4)cc3)c(=O)c2cc1Cl" and print it.
Response: 46.9 (9.6) %

###

- System: E. multilocularis metacestodes (isolate H95)
- protocol_details: PGI assay (damage marker release), metacestodes, isolate H95
- Format: cell-based, Echinococcus multilocularis
- assay_conditions: Echinococcus multilocularis, 120 h; isolate H95; 10 μM; 5 days; normoxic; mean (SD) of triplicates; active if >20%; read-out: Metacestodes, PGI assay, relative to positive control Tx-100
Parameter: cytotoxicity at 10 µM. Scope: all listed entries.
State the answer as a number, implicitly in %.

Example entries begin here.
compound: CCCCCCCCCCCc1c(C)[nH]c2cc(OC)c(F)cc2c1=O [ELQ-435]
quantity_name: cytotoxicity at 10 µM
experimental_value: 2.6
//
compound: CCCCCCCc1c(C)[nH]c2cc(OC)c(F)cc2c1=O [ELQ-433]
quantity_name: cytotoxicity at 10 µM
experimental_value: 4.3
//
compound: CCCCCCCc1c(C)[nH]c2cccc(F)c2c1=O [ELQ-136]
quantity_name: cytotoxicity at 10 µM
experimental_value: 21.4

Query: Retrieve cytotoxicity at 10 µM measured for CCCCCCCCCCCc1c(C)[nH]c2cc(OC)c(Cl)cc2c1=O [ELQ-434] and print it.
Response: 0.4

Query: Retrieve cytotoxicity at 10 µM measured for CCCCCCCCCCCc1c(C)[nH]c2ccccc2c1=O [ELQ-436] and print it.
Response: 3.4

Query: Retrieve cytotoxicity at 10 µM measured for CCCCCCCc1c(C)[nH]c2cc(OC)ccc2c1=O [ELQ-100] and print it.
Response: 1.4

Query: Retrieve cytotoxicity at 10 µM measured for CCCCCCCc1c(C)[nH]c2ccccc2c1=O [ELQ-127] and print it.
Response: 11.7

Query: Retrieve cytotoxicity at 10 µM measured for CCCCCCCCCCCc1c(C)[nH]c2cc(F)cc(F)c2c1=O [ELQ-437] and print it.
Response: 37.6

###

Parameter: viability at 0.1 µM. Scope: all listed entries.
- System: E. multilocularis GL cells (isolate H95)
- protocol_details: GL cell viability assay (CellTiter-Glo), isolate H95
- Assay type: cell-based, Echinococcus multilocularis
- assay_conditions: Echinococcus multilocularis, 120 h; isolate H95; 0.1 μM; 5 days; nitrogen atmosphere; mean (SD); active if <30%; read-out: GL cells, viability via ATP measurements, relative to DMSO control
State the answer as a number, implicitly in %.

Query: GET viability at 0.1 µM | system: E. multilocularis GL cells (isolate H95) | item: "CCCCCCCc1c(C)[nH]c2cccc(F)c2c1=O"
Response: 8.4

Query: GET viability at 0.1 µM | system: E. multilocularis GL cells (isolate H95) | item: "CCCCCCCCCCCc1c(C)[nH]c2cc(F)cc(F)c2c1=O"
Response: 19.7

Query: GET viability at 0.1 µM | system: E. multilocularis GL cells (isolate H95) | item: "CCCCCCCc1c(C)[nH]c2cc(OC)ccc2c1=O"
Response: 100

Query: GET viability at 0.1 µM | system: E. multilocularis GL cells (isolate H95) | item: "CCCCCCCCCCCc1c(C)[nH]c2cc(OC)c(F)cc2c1=O"
Response: 15.6

Query: GET viability at 0.1 µM | system: E. multilocularis GL cells (isolate H95) | item: "CCCCCCCc1c(C)[nH]c2cc(OC)c(F)cc2c1=O"
Response: 96.4

###

- Tested on: E. multilocularis GL cells (isolate H95)
- protocol_details: GL cell viability assay (CellTiter-Glo), isolate H95
- Assay type: cell-based, Echinococcus multilocularis
- assay_conditions: isolate H95; 0.1 μM; 5 days; nitrogen atmosphere; mean (SD); active if <30%
quantity_name: GL cells, viability via ATP measurements, relative to DMSO control

Query: Retrieve GL cells, viability via ATP measurements, relative to DMSO control measured for Cc1[nH]c2ccccc2c(=O)c1-c1ccc(Oc2ccc(OC(F)(F)F)cc2)cc1 [ELQ-271] and print it.
Response: 2.7 (1.6) %

Query: Retrieve GL cells, viability via ATP measurements, relative to DMSO control measured for COc1cc2[nH]c(C)c(-c3ccc(Oc4ccc(OC(F)(F)F)cc4)cc3)c(=O)c2cc1F [ELQ-316] and print it.
Response: 81.1 (9.5) %

Query: Retrieve GL cells, viability via ATP measurements, relative to DMSO control measured for Cc1[nH]c2cc(F)cc(F)c2c(=O)c1-c1ccc(Oc2ccc(OC(F)(F)F)cc2)cc1 [ELQ-400] and print it.
Response: 8.4 (4.8) %

Query: Retrieve GL cells, viability via ATP measurements, relative to DMSO control measured for COc1cc2[nH]c(C)c(-c3ccc(Oc4ccc(OC(F)(F)F)cc4)cc3)c(=O)c2cc1Cl [ELQ-300] and print it.
Response: 84.0 (7.0) %

###

- Tested on: E. multilocularis metacestodes (isolate Sval)
- protocol_details: PGI assay (damage marker release), metacestodes, isolate Sval
- Format: cell-based, Echinococcus multilocularis
- assay_conditions: Echinococcus multilocularis, 120 h; isolate Sval; 10 μM; 5 days; normoxic; mean (SD) of triplicates; active if >20%; read-out: Metacestodes, PGI assay, relative to positive control Tx-100
Please respond with t when measured cytotoxicity at 10 µM is strictly beneath 2%, and with f in all other cases.

Query: Does the reported cytotoxicity at 10 µM of "CCCCCCCc1c(C)[nH]c2ccccc2c1=O" stay below 2%?
Response: f

Query: Does the reported cytotoxicity at 10 µM of "CCCCCCCCCCCc1c(C)[nH]c2cc(OC)c(F)cc2c1=O" stay below 2%?
Response: t

Query: Does the reported cytotoxicity at 10 µM of "CCCCCCCc1c(C)[nH]c2cc(OC)c(F)cc2c1=O" stay below 2%?
Response: t

###

- Tested on: E. multilocularis metacestodes (isolate H95)
- protocol_details: PGI assay (damage marker release), metacestodes, isolate H95
- Assay type: cell-based, Echinococcus multilocularis
- assay_conditions: isolate H95; 10 μM; 5 days; normoxic; mean (SD) of triplicates; active if >20%
Parameter: Metacestodes, PGI assay, relative to positive control Tx-100. Scope: all listed entries.

Example entries begin here.
compound: COc1cc2[nH]c(C)c(-c3ccc(Oc4ccc(OC(F)(F)F)cc4)cc3)c(=O)c2cc1Cl [ELQ-300]
experimental_value: 6.6 (2.2) %
//
compound: Cc1[nH]c2cc(F)cc(F)c2c(=O)c1-c1ccc(Oc2ccc(OC(F)(F)F)cc2)cc1 [ELQ-400]
experimental_value: 21.4 (2.5) %
//
compound: COc1cc2[nH]c(C)c(-c3ccc(Oc4ccc(OC(F)(F)F)cc4)cc3)c(=O)c2cc1F [ELQ-316]
experimental_value: 21.4 (0.1) %

Now let's try a different one.
Query: Retrieve Metacestodes, PGI assay, relative to positive control Tx-100 measured for Cc1[nH]c2ccccc2c(=O)c1-c1ccc(Oc2ccc(OC(F)(F)F)cc2)cc1 [ELQ-271] and print it.
Response: 33 (1.7) %

###

Parameter: viability at 0.1 µM. Scope: all listed entries.
- Test system: E. multilocularis GL cells (isolate H95)
- protocol_details: GL cell viability assay (CellTiter-Glo), isolate H95
- Assay type: cell-based, Echinococcus multilocularis
- assay_conditions: Echinococcus multilocularis, 120 h; isolate H95; 0.1 μM; 5 days; nitrogen atmosphere; mean (SD); active if <30%; read-out: GL cells, viability via ATP measurements, relative to DMSO control
State the answer as a number, implicitly in %.

Example entries begin here.
smiles_repr: CCCCCCCCCCCc1c(C)[nH]c2ccccc2c1=O
viability at 0.1 µM, %: 14

smiles_repr: CCCCCCCc1c(C)[nH]c2ccccc2c1=O
viability at 0.1 µM, %: 17.2

Now let's try a different one.
Query: Retrieve viability at 0.1 µM measured for "CCCCCCCCCCCc1c(C)[nH]c2cc(OC)c(Cl)cc2c1=O" and print it.
Response: 33.3
